assay: Selectivity for PDE5 of human platelets over PDE2 of rat kidney
property.name: IC50 ratio

compound: CCn1ncc2c(NCc3ccc(OC)c(Cl)c3)c(C(=O)NC[C@@H]3CCCO3)cnc21
result: 8000

P: CCn1ncc2c(NCc3ccc(OC)c(Cl)c3)c(C(=O)NCCCN3CCCC3=O)cnc21
Q: CCn1ncc2c(NCc3ccc(OC)c(Cl)c3)c(C(=O)NCCCCCO)cnc21
R: CCn1ncc2c(NCc3ccc(OC)c(Cl)c3)c(C(=O)NCc3ccncc3)cnc21
S: CCCCNc1c(C(=O)OCC)cnc2c1cnn2CC [CARTAZOLATE]
List items by IC50 ratio in falling order. Submit the labels in the order that the ranking request calls for. R, Q, P, S
(R: 9200, Q: 5200, P: 3000, S: 45)

* * *

experiment: Selectivity for PDE5 of human platelets over PDE4 of rat kidney
property.name: IC50 ratio

compound: CCn1ncc2c(NCc3ccc(OC)c(Cl)c3)c(C(=O)NCCCN3CCCC3=O)cnc21
result: 460

A: CCn1ncc2c(NCc3ccc(OC)c(Cl)c3)c(C(=O)NC[C@@H]3CCCO3)cnc21
B: CCn1ncc2c(NCc3ccc(OC)c(Cl)c3)c(C(=O)NCCCCCO)cnc21
C: CCCCNc1c(C(=O)OCC)cnc2c1cnn2CC [CARTAZOLATE]
Form: Sort by [IC50 ratio] Order [ ascending ] Submit the labels in the order that the ranking request calls for. C, B, A
(C: 1, B: 340, A: 760)

* * *

assay: Half life was determined in dogs; format: ADME, organism-based, Canis lupus familiaris; conditions: dog, in vivo
property.name: half-life (h)
Numbers only; they are read as h.

Using known records, supply half-life for `CCCc1nn(C)c2c(=O)[nH]c(-c3cc(S(=O)(=O)N4CCN(C)CC4)ccc3OCC)nc12` 5.2

* * *

test: Bioavailability was determined in male rats after a dose of 21 uM/kg.; assay type: ADME, organism-based; settings: rat, in vivo
property.name: bioavailability (%)
Numbers only; they are read as %.

Using known records, supply bioavailability for `CCn1ncc2c(NCc3ccc(OC)c(Cl)c3)c(C(=O)NCc3ccncc3)cnc21` 33

* * *

assay: Selectivity for PDE5 of human platelets over PDE6 of bovine retina
property.name: IC50 ratio

molecule: CCn1ncc2c(NCc3ccc(OC)c(Cl)c3)c(C(=O)NC[C@@H]3CCCO3)cnc21
IC50 ratio: 22
//
molecule: CCn1ncc2c(NCc3ccc(OC)c(Cl)c3)c(C(=O)NCc3ccncc3)cnc21
IC50 ratio: 47

a: CCCCNc1c(C(=O)OCC)cnc2c1cnn2CC [CARTAZOLATE]
b: CCn1ncc2c(NCc3ccc(OC)c(Cl)c3)c(C(=O)NCCCCCO)cnc21
c: CCn1ncc2c(NCc3ccc(OC)c(Cl)c3)c(C(=O)NCCCN3CCCC3=O)cnc21
List items by IC50 ratio in falling order. Submit the labels in the order that the ranking request calls for. b, c, a
(b: 35, c: 19, a: 2)

* * *

experiment: Selectivity for PDE5 of human platelets over PDE1 of bovine heart
property.name: IC50 ratio

compound: CCn1ncc2c(NCc3ccc(OC)c(Cl)c3)c(C(=O)NCCCCCO)cnc21
IC50 ratio: 2700
--
compound: CCn1ncc2c(NCc3ccc(OC)c(Cl)c3)c(C(=O)NC[C@@H]3CCCO3)cnc21
IC50 ratio: 2500

A: CCn1ncc2c(NCc3ccc(OC)c(Cl)c3)c(C(=O)NCCCN3CCCC3=O)cnc21
B: CCn1ncc2c(NCc3ccc(OC)c(Cl)c3)c(C(=O)NCc3ccncc3)cnc21
C: CCCCNc1c(C(=O)OCC)cnc2c1cnn2CC [CARTAZOLATE]
List items by IC50 ratio in falling order. Submit the labels in the order that the ranking request calls for. B, A, C

* * *

experiment: Half life was determined in male rats after a dose of 21 uM/kg.; type: ADME, organism-based; details: rat, in vivo
property.name: half-life (h)
Numbers only; they are read as h.

Using known records, supply half-life for `CCn1ncc2c(NCc3ccc(OC)c(Cl)c3)c(C(=O)NCc3ccncc3)cnc21` 1.2

* * *

pIC50: −log10 of the molar value.
Hi! I'm sharing some pIC50 results obtained with cGMP-specific 3',5'-cyclic phosphodiesterase (Homo sapiens, UniProt O76074).
property.name: pIC50

molecule: CCn1ncc2c(NCc3ccc(OC)c(Cl)c3)c(C(=O)NCCCCCO)cnc21
assayed.target: cGMP-specific 3',5'-cyclic phosphodiesterase (Homo sapiens, UniProt O76074)
pIC50: 8.85

a: CCn1ncc2c(NCc3ccc(OC)c(Cl)c3)c(C(=O)NC[C@@H]3CCCO3)cnc21
b: CCCCNc1c(C(=O)OCC)cnc2c1cnn2CC [CARTAZOLATE]
c: CCn1ncc2c(N[C@@H](C)C3CCCCC3)c3cc(C#N)ccc3nc21
d: CCn1ncc2c(NCc3ccc(OC)c(Cl)c3)c(C(=O)O)cnc21
List items by pIC50 in falling order. Submit the labels in the order that the ranking request calls for. c, a, d, b
(c: 9.00, a: 8.74, d: 7.42, b: 6.74)

* * *

assay: Half life was determined in dogs after a dose of 23 uM/kg.; format: ADME, organism-based, Canis lupus familiaris; settings: dog, in vivo
property.name: half-life (h)
Numbers only; they are read as h.

Using known records, supply half-life for `CCn1ncc2c(NCc3ccc(OC)c(Cl)c3)c(C(=O)NCc3ccncc3)cnc21` 2.3

The reported measurements were obtained from ChEMBL document CHEMBL1134846.
